What Efflux ratio was measured for each of the following?
system: Pseudomonas aeruginosa MB9798 vs MB9799; conditions: ratio MITC95 PA_9798/MITC95 PA_9799
Answers are plain numbers.

Example entries begin here.
Smiles structure	Efflux ratio
CC(C)(CN)NS(=O)(=O)c1ccc(-c2cccnc2N)c(-c2nn[nH]n2)c1S(N)(=O)=O	4.00
NC(=O)c1ccc(-c2ccc(S(=O)(=O)N[C@@H]3CCNC3)c(S(N)(=O)=O)c2-c2nnn[nH]2)cc1	1.00
Nc1nc2c(-c3ccc(S(=O)(=O)NC[C@H](N)CO)c(S(N)(=O)=O)c3-c3nn[nH]n3)cccc2[nH]1	1.00

Now let's try a different one.
Q: // query Efflux ratio value for entry NCCNS(=O)(=O)c1ccc(-c2ccc3ncn(CCN)c3c2)c(-c2nn[nH]n2)c1S(N)(=O)=O
A: 4.00
